- experimental system: mouse 17β-HSD2 (Mus musculus, UniProt P51658)
- Construct: The pellet fractions containing the microsomal 17β-HSD2 were used for the determination of E1 formation; from tissue; host or cells: mouse liver, microsomal fraction
- Sequence (P51658 1-381): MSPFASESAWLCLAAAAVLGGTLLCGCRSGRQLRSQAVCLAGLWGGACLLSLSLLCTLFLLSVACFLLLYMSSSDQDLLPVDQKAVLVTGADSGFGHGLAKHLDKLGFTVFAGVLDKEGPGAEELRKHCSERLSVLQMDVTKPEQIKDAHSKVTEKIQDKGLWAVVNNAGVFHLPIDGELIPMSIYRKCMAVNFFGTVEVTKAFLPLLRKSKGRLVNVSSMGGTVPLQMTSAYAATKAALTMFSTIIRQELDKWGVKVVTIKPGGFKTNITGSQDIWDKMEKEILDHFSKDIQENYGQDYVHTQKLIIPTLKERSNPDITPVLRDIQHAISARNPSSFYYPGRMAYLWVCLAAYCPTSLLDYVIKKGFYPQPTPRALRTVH
- test name: Inhibition of mouse 17β-HSD2 (liver microsomal fraction)
- Assay type: biochemical
- particulars: read-out: IC50 m17β-HSD2
assay endpoint: IC50 (nM)
Answer with a number only, understood to be in nM.

{"molecule": "Cc1cc(-c2ccc(C(=O)c3cc(F)c(F)c(O)c3F)s2)cc(C)c1O [Compound 50]", "unit string": "nM", "IC50": 100}

Any idea what IC50 was measured for O=C(c1ccc(-c2ccc3cc[nH]c3c2)s1)c1cc(F)c(F)c(O)c1F [Compound 43] ?
113

Any idea what IC50 was measured for Nc1cccc(-c2ccc(C(=O)c3cc(F)c(F)c(O)c3F)s2)c1 [Compound 35] ?
177

Any idea what IC50 was measured for Cc1cc(C(=O)c2c(F)ccc(O)c2F)sc1-c1ccc(O)c(Cl)c1 [Compound 21] ?
78

Any idea what IC50 was measured for O=C(c1ccc(-c2cc(Cl)c(O)c(Cl)c2)s1)c1c(F)ccc(O)c1F [Compound 23] ?
209

Any idea what IC50 was measured for O=C(c1ccc(-c2ccc(F)cc2F)s1)c1cc(F)c(F)c(O)c1F [Compound 40] ?
326

Any idea what IC50 was measured for O=C(c1ccc(-c2cccc(CO)c2)s1)c1cc(F)c(F)c(O)c1F [Compound 47] ?
260

Any idea what IC50 was measured for Cc1cc(-c2ccc(C(=O)c3cccc(O)c3C)s2)cc(C)c1O [G, reference compound] ?
546

Any idea what IC50 was measured for COc1c(Cl)cc(-c2ccc(C(=O)c3cc(F)c(F)c(O)c3F)s2)cc1Cl [Compound 45] ?
89

Any idea what IC50 was measured for Cn1cnc(S(=O)(=O)Nc2cccc(-c3ccc(C(=O)c4cc(F)c(F)c(O)c4F)s3)c2)c1 [Compound 48] ?
155

Where do the numbers come from? From patent US9884839B2.
